src = ChEMBL document CHEMBL1158175

Protocol Text: Displacement of [3H]DTH from sigma 2 receptor in rat liver homogenate in presence of (+)-pentazocine
Assay type: tissue-based
Measured Endpoint: pIC50
// returns pIC50 (minus log10 of molar concentration), number only

Ask: State the recorded pIC50 for this entry: Fc1ccc(-n2cc(CCCCN3CCC4(CC3)OCc3ccccc34)c3ccccc32)cc1
Reply: 9.92

* * *

Assay Target: Sigma non-opioid intracellular receptor 1 (Rattus norvegicus)
Protocol Text: Displacement of [3H] (+)-pentazocine from sigma 1 receptor in rat liver homogenate at 100 nM
Format: tissue-based
Measured Endpoint: Activity (%)
The reply should be a number in %, with the unit left off.

Ask: State the recorded Activity for this entry: CN(CCCCc1cn(-c2ccc(F)cc2)c2ccccc12)Cc1ccccc1Br
Reply: 46

Ask: State the recorded Activity for this entry: Cc1ccc(CN(C)CCCCc2cn(-c3ccc(F)cc3)c3ccccc23)cc1
Reply: 71

Ask: State the recorded Activity for this entry: CN(CCCc1cn(-c2ccc(F)cc2)c2ccccc12)Cc1ccc(Br)cc1
Reply: 71

Ask: State the recorded Activity for this entry: CN(CCCCc1cn(-c2ccc(F)cc2)c2ccccc12)Cc1ccccc1Cl
Reply: 58
